Assay: Bioavailability
Assay type: ADME, organism-based
Conditions: rat, in vivo
attribute-measured: bioavailability (%)
# output: bare number, implied unit %

Reported bioavailability for `CCCN1C(=O)[C@H](NC(=O)Nc2cccc(C)c2)N=C(N2CCN(C)CC2)c2ccccc21` : what is it? 51

* * *

Assay: Maximum plasma drug concentration was determined
Type: ADME, organism-based
Settings: rat
attribute-measured: Cmax (ng/mL)
Just the number in ng/mL, nothing appended.

Give the measured Cmax of `CCCN1C(=O)[C@H](NC(=O)Nc2cccc(C)c2)N=C(N2CCN(C)CC2)c2ccccc21` . 469

* * *

Biological target: Cholecystokinin receptor type A (Rattus norvegicus)
Sequence (P30551 whole entry): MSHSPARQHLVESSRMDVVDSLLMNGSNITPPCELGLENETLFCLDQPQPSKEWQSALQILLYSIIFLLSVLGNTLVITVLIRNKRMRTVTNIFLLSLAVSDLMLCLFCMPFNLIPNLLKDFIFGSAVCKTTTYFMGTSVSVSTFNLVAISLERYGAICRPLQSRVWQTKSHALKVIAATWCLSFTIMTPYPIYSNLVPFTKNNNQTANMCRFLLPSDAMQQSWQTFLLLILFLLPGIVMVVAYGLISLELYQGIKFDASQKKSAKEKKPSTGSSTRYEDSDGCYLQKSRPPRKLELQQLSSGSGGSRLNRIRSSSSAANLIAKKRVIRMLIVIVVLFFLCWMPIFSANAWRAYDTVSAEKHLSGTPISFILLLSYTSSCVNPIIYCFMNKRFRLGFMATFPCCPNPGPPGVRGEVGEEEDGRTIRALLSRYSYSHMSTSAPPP
attribute-measured: IC50

Reference set, count: 3
compound: Cc1cccc(NC(=O)NC2N=C(N3CCNCC3)c3ccccc3N(C)C2=O)c1 (stereo unspecified)
system: Cholecystokinin receptor type A (Rattus norvegicus)
IC50: > 3 µM
//
compound: Cc1cccc(NC(=O)NC2N=C(N3CCN(C(=O)OC(C)(C)C)CC3)c3ccccc3N(C)C2=O)c1 (stereo unspecified)
system: Cholecystokinin receptor type A (Rattus norvegicus)
IC50: > 3 µM
//
compound: CCCN1C(=O)C(NC(=O)Nc2cccc(OC)c2)N=C(N2CCN(C)CC2)c2ccccc21 (stereo unspecified)
system: Cholecystokinin receptor type A (Rattus norvegicus)
IC50: > 3 µM

Report IC50 for CCCN1C(=O)C(NC(=O)Nc2cccc(CC)c2)N=C(N2CCN(C)CC2)c2ccccc21 (stereo unspecified) please. > 3 µM

Field entry: `Cc1cccc(NC(=O)N[C@@H]2N=C(c3ccccc3)c3ccccc3N3C[C@H](C)N=C23)c1` 1.56 µM

Please give the result for CCCN1C(=O)C(NC(=O)Nc2cccc(C(F)(F)F)c2)N=C(N2CCN(C)CC2)c2ccccc21 (stereo unspecified) too. 3.8 µM

* * *

Test: Compound was tested for solubility in water
Format: ADME
Conditions: read-out: S
attribute-measured: solubility (µg/mL)
Numeric only. Scale: µg/mL

Which value of solubility has been reported for `CCCN1C(=O)[C@H](NC(=O)Nc2cccc(C)c2)N=C(N2CCN(C)CC2)c2ccccc21` in the records? 600

* * *

Test: Plasma half-life was determined
Assay type: ADME, organism-based
Details: rat
attribute-measured: half-life
State the value with its unit after it.

Look at this molecule and give its reported half-life. `CCCN1C(=O)[C@H](NC(=O)Nc2cccc(C)c2)N=C(N2CCN(C)CC2)c2ccccc21` 55 min
